Counter-ions that a name gives are not always drawn.
What follows is a record of Ki for human 5-HT7 receptor (Homo sapiens).

Please review the following examples before continuing.
>  <compound>
CC1(O)c2cc(C(=O)N=C(N)N)ccc2-c2c(F)cccc21 (single isomer, unassigned) [Example 78a]

>  <Ki>
0.4 to 310 nM

$$$$
>  <compound>
CC(C)C1NC(=NC(=O)c2ccc3c(c2)C(O)c2ccccc2-3)NC1=O (stereo not shown) [Example 8, hydrochloride]

>  <Ki>
0.4 to 310 nM

$$$$
>  <compound>
NC(N)=NC(=O)c1ccc2c(c1)C1(CC1)c1ccccc1-2 [Example 63]

>  <Ki>
0.4 to 310 nM

$$$$

Please look at the following compound next.
Inquiry: If you can, please state the reported Ki value of CC1(O)c2ccccc2-c2ccc(C(=O)N=C(N)N)cc21 (racemic) [Example 56] .
Reply text: 0.4 to 310 nM

====

biological target: 5-HT6 receptor (UniProt P50406)
readout.name: IC50

Inquiry: If you can, please state the reported IC50 value of Cl.NC(N)=NC(=O)c1ccc2c(c1)C(O)c1ccccc1-2 (stereo not shown) [Example 3, hydrochloride] .
Reply text: ≥ 1000 nM

====

target: α1 receptor; assay: Affinity for other receptors: α1
pIC50: −log10 of the molar value.
readout.name: pIC50

Inquiry: If you can, please state the reported pIC50 value of Cl.NC(N)=NC(=O)c1ccc2c(c1)C(O)c1ccccc1-2 (stereo not shown) [Example 3, hydrochloride] .
Reply text: ≤ 6.00

====

molecular target: UniProt:O70528
pIC50: −log10 of the molar value.
readout.name: pIC50

Inquiry: If you can, please state the reported pIC50 value of Cl.NC(N)=NC(=O)c1ccc2c(c1)C(O)c1ccccc1-2 (stereo not shown) [Example 3, hydrochloride] .
Reply text: ≤ 6.00

src = patent US20080200551A1
